Hello, the source for this data is paper PMC9911399, in case you need it.

Entries and their binding signal
# testedOn: T1, RBFOX1 RRM RbFoxmut (Fox-RRM*) (Homo sapiens, UniProt Q9NWB1 109-208, R118D;E147R;N151S;E152T)
# T1 sequence: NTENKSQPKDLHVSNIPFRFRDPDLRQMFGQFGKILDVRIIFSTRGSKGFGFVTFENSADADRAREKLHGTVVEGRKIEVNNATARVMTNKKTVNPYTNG
# procedureSummary: EMSA; HiTS-Eq, 1 nM pool, 10 min; buffer printed only for the single-RNA assays: 10 mM Tris pH 7.5, 150 mM NaCl, 3.4 mM EDTA, 0.001% NP-40, 30 C
# assaySetup: tags: His6 N-terminal (pET28a); label: 5' 32P
Whole data set: some 16,000 sequences, median “ka relative to ugcaugu” near 0.096, cut for the highest 2% near 0.35. What follows is part of a selection rich in the highest values, with near analogues and random picks from the rest.

>>> endpointresult("GAACUCU (DNA:RNA) RNA: GGGAGACCGGAAUUCAGAUUGUCCGAACUCUUUAAAUCCCGUCGUAGCCACCA DNA 1: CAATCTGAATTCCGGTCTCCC DNA 2: TGGTGGCTACGACGGGATT")
"0.053 KA relative to UGCAUGU"

Exam item: Which binding signal is listed for CGAUGGC (DNA:RNA) RNA: GGGAGACCGGAAUUCAGAUUGUCCCGAUGGCUUAAAUCCCGUCGUAGCCACCA DNA 1: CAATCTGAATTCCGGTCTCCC DNA 2: TGGTGGCTACGACGGGATT ?
Marked response: 0.101 KA relative to UGCAUGU
